Measured values drawn from a melting point compilation (Tetko et al.; mined from patent text by program, amines drawn as free bases though some values may be those of a salt) for this set.

EXPERIMENTAL READOUT: melting point

[[record]]
molecule = "C#CCOc1cc(C=O)cc(Cl)c1OCC#C"
reported_result = "64 to 65 °C"

[[record]]
molecule = "CC(=O)OCCN1CC(c2ccccc2)NC1=O (stereo unspecified)"
reported_result = "88 to 90 °C"

[[record]]
molecule = "Cc1ccc(-c2ccc3c(c2)C=C(C(=O)O)CCO3)cc1"
reported_result = "255 to 256 °C"

[[record]]
molecule = "COc1ccc(C2=NO[C@]3(CCOC3)C2)cc1OC1CCCC1"
reported_result = "110 °C"

[[record]]
molecule = "Fc1ccc(-c2nc3n(c2-c2ccnc(Nc4ccccc4)c2)CCS3)cc1"
reported_result = "299 °C"

[[record]]
molecule = "CNS(=O)(=O)c1sc(C)cc1CC(=O)O"
reported_result = "138 °C"

[[record]]
molecule = "Cc1ccc2c(c1)c(-c1ccc(F)cc1)cn2N"
reported_result = "116 to 120 °C"

[[record]]
molecule = "c1ccc2c3c([nH]c2c1)C(c1ccc2c(c1)OCO2)NCC3 (stereo unspecified)"
reported_result = "173 °C"

[[record]]
molecule = "Cc1cccc(Nc2cc(Nc3ccc(OCC(O)CN(C)C)cc3)ncn2)c1 (stereo unspecified)"
reported_result = "192 to 195 °C"

[[record]]
molecule = "CC(=O)C(C)Oc1cc(N)c(Cl)cc1C(=O)NCCN(C)C (stereo unspecified)"
reported_result = "124 to 125 °C"

[[record]]
molecule = "[N-]=[N+]=NCc1cc(C(N)C(=O)O)ccc1O (stereo unspecified)"
reported_result = "> 300 °C"


---

melting point values by entry
EXPERIMENTAL READOUT: melting point

[[record]]
compound = "CCC1(CC)CC(c2ccc(F)cc2)=C(c2ccc(S(N)(=O)=O)cc2)C1"
experimental_readout = "melting point"
reported_result = "101 °C"

[[record]]
compound = "N#CC(C(=O)Nc1ccccc1)C(=O)c1nn(-c2ccccc2)c2c1CSc1ccc(C(=O)NCC(=O)O)cc1-2 (stereo not given)"
experimental_readout = "melting point"
reported_result = "244 to 250 °C"

[[record]]
compound = "COc1ccc2c(c1)C(=NO)c1c-2c(N2CCNCC2)nc2ccccc12"
experimental_readout = "melting point"
reported_result = "146 to 147 °C"

[[record]]
compound = "FC(F)(F)COc1ccccc1Sc1nc[nH]n1"
experimental_readout = "melting point"
reported_result = "100 to 101 °C"

[[record]]
compound = "CCOC(=O)/C=C/c1cnn(C)c1-c1cccs1"
experimental_readout = "melting point"
reported_result = "73 to 74 °C"


---

EXPERIMENTAL READOUT: melting point

[[record]]
compound = "C=C(C)c1cnc(C2=NC(C)(C(C)C)C(=O)N2)c(C(=O)OC)c1 (stereo not given)"
reported_result = "90.5 to 92.5 °C"

[[record]]
compound = "Fc1ccc(-c2nc(CI)co2)cc1"
reported_result = "100 to 102 °C"

[[record]]
compound = "CN1C(=O)C(NC(=O)CCCCc2ccccc2)N=C(N2CCCCCC2)c2ccccc21 (stereo not given)"
reported_result = "140 to 141 °C"

[[record]]
compound = "Cc1c(C)c2c(c(C)c1NS(C)(=O)=O)C(c1ccc(C(C)C)cc1)CO2 (stereo not given)"
reported_result = "132 to 133 °C"

[[record]]
compound = "O=C(Nc1ccc(-n2nc(C(F)(F)F)cc2OC(F)F)cc1)c1ccccc1F"
reported_result = "130 to 131 °C"

[[record]]
compound = "COC(=O)c1ccc2c(Cl)c(C(=O)Cl)sc2c1"
reported_result = "259 to 260 °C"

[[record]]
compound = "COc1cc2[nH]c(C)c(CCN3CCN(NC(=O)c4ccccc4)CC3)c2cc1OC"
reported_result = "128 to 131 °C"

[[record]]
compound = "O=C1CCc2cc(Cl)c(S(=O)(=O)Cl)cc21"
reported_result = "146 to 148 °C"

[[record]]
compound = "CCCCCNC(=O)N(CCCc1ccncc1)CCC12CC3CC(CC(C3)C1)C2"
reported_result = "47 to 50 °C"

[[record]]
compound = "O=C(O)Cc1cc(=O)c(O)cn1Cc1ccccc1"
reported_result = "231 to 235 °C"

